Endpoint: melting point

The cases that follow already have their melting point on record.
Compound | melting point
CC(CO)(CO)OCc1ccccc1 | 89.5 to 90 °C
COc1c([N+](=O)[O-])ccc(C=O)c1OS(=O)(=O)c1ccccc1 | 74 to 76 °C
CCCCCC1(C)OCc2c1cnc(C)c2O (stereo unspecified) | 222 °C
FC(F)(F)CNc1ccc2c(c1)N1CCCN=C1S2 | 187 °C
COc1cc2c(NC3=CC(=O)C(Cl)=CC3=O)ncnc2cc1OCC1CCCCO1 (stereo unspecified) | 215 to 220 °C
COC(=O)c1nc(N)sc1-c1ccccc1 | 208 °C
CC(=O)ONC(=N)c1ccc(-c2cccc(-c3nc4ccc(C(=N)NOC(C)=O)cc4[nH]3)n2)cc1 | 150 to 153 °C
COC(=S)c1cnccc1Cc1ccccc1 | 98 to 99 °C
CN(C)CCCn1c(-c2ccc(Br)cc2)cc2c1CCCCC2 | 69 to 70 °C
CC1CC(C)(C)OOC(C)(CCC(=O)NNC(=O)CCC(=O)O)O1 (stereo unspecified) | 122 to 126 °C

# input for lookup
So, CCCN(CCC)c1ccccc1C(C)C(C(N)=O)c1ccc(C(=O)O)cc1 (stereo unspecified) ? Its melting point was 175 to 178 °C

----------
Recorded measurements of melting point, one per entry

The cases that follow already have their melting point on record.
Compound | Assay Result
Nc1nc(-c2ccnc(-c3ccc(N4CCOCC4)cc3)c2)c(-c2ccccn2)s1 | 276 °C
CC(=O)c1c(C)[nH]c(C(C)CCC(C)c2[nH]c(C)c(C(C)=O)c2C)c1C (stereo unspecified) | 263 to 268 °C
Cc1nc(N)ccc1-c1ccccc1 | 110 to 113 °C
CC(C)n1nc(-c2sc(NC(=O)c3ccc(F)cc3)nc2-c2ccccc2)ccc1=O | 225 to 226 °C
CC(=O)CC(=O)NC1CCCCCC1 | 52 °C

# input for lookup
So, `CSC(=NC#N)NCCSc1ncccc1C(=O)c1ccccc1` ? Its melting point was 180 to 181 °C

----------
Recorded measurements of melting point, one per entry

Molecule | Endpoint | Assay Result
Cn1c(=O)c(-c2ccc(Cl)cc2Cl)cc2c3cc(-c4nc(CN5CCCC5)cs4)ccc3n(C)c21 | melting point | 222 to 226 °C
CC(C)c1onc(-c2c(Cl)cccc2Cl)c1COc1ccc(N(C)Cc2ccc(C(=O)O)cc2)c(C(F)(F)F)n1 | melting point | 96.1 to 97.1 °C
Cc1oc(-c2ccccc2)nc1COc1ccc(COc2nn(-c3ccccc3)cc2/C=C/C(=O)O)cc1 | melting point | 186 to 187 °C

So, `COC(=O)c1c[nH]c(C(=O)c2cc(OC)cc(OC)c2)c1` ? Its melting point was 115 to 120 °C

So, CCOC(=O)C1=Cc2cc(Cl)cc(-c3ccccc3)c2OC1C(F)(F)F (stereo unspecified) ? Its melting point was 196 to 198 °C

So, `Cc1csc(=Nc2ccccc2C)s1` ? Its melting point was 65.5 to 69 °C

So, `COC(=O)c1cc(Cl)c2c(c1OC)CCN2C(C)=O` ? Its melting point was 107 to 109 °C

----------
Recorded measurements of melting point, one per entry

So, `COc1ccc2cc(S(=O)(=O)Cc3ccc(OC)c([N+](=O)[O-])c3)c(=O)oc2c1` ? Its melting point was 250 to 252 °C

So, `COc1ccc(N2CCN(CCN3CCC(c4noc5cc(F)ccc45)CC3)C2=O)cc1` ? Its melting point was 154 to 157 °C

So, `COc1cc2c(cc1OC)CCC(C(=O)N1CCN(C(=O)c3cc(OC)c(OC)cc3OC)CC1)=C2` ? Its melting point was 171 to 172 °C

So, `Cc1cc(Cl)ccc1NC(=S)NC(=O)c1ccccc1` ? Its melting point was 148 °C

----------
Recorded measurements of melting point, one per entry

Compound | melting point
O=c1c(-c2ccccc2)c(CNc2ncnc3[nH]cnc23)oc2ccccc12 | 155 to 158 °C
CCOC(=O)C(C)Oc1ccc2c(-c3ccc(Cl)cc3)noc2c1 (stereo not given) | 95 °C
NC(=O)c1ncn(C2OC(CO)C(O)C2O)c1C#Cc1ccccc1 (stereo not given) | 168 to 169 °C
Cc1cc(C=O)c(Cl)nc1C | 69 to 70 °C
Cc1ccc(COC2C(Sc3ccccc3)OC(C)C(OC(=O)c3ccccc3)C2OC(=O)c2ccccc2)cc1 (stereo not given) | 81 to 83 °C

# input for lookup
So, `COc1ccc(N(C)C(=O)CN2C(=O)c3ccccc3C2=O)c(OC)c1COc1cccc2ccc(C)nc12` ? Its melting point was 184 to 185 °C

----------
Endpoint: melting point

The cases that follow already have their melting point on record.
Compound | melting point
COC(=O)N1CCCC2CN(c3ccc(N4CC(CNC(C)=O)OC4=O)cc3F)CC21 (stereo unspecified) | 83 to 85 °C
c1ccc(COc2ccc(-c3cc4ccccc4[nH]3)cc2)cc1 | 251 °C
CCOC(=O)Cc1ccc(C(=O)CN2CCN(c3ccncc3)CC2)cc1 | 122 to 124 °C

# input for lookup
So, `O=C(Nc1ccc(-n2nc(C(F)(F)F)cc2C(F)(F)F)cc1)c1cc(F)c(F)c(F)c1` ? Its melting point was 158 to 159 °C

----------
Recorded measurements of melting point, one per entry

Compound | Endpoint | Assay Result
C[C@@H](N1CCN(c2ccc(Cl)cc2)C1=O)[C@@]1(c2ccc(F)cc2F)CO1 | melting point | 130 to 131 °C

So, `O=c1c2c(c1=O)Nc1c(Cl)cc(C(F)(F)F)cc1N2` ? Its melting point was 335 to 337 °C

So, `Cc1ccc2c(c1)c(-c1ccc(F)cc1)c(C)n2C1=CCN(CCN2CCNC2=O)CC1` ? Its melting point was 151 to 153 °C

So, `COCCOC1CCN(c2ccc(NC(=O)c3cnn(-c4ccc(Cl)cc4)c3C)cc2C#N)CC1` ? Its melting point was 180 to 182 °C

So, `Cc1c(Cc2ccccc2)c(=O)n(C2CCCC2)c2nc(Nc3ccc(N4CCNCC4)cc3)ncc12` ? Its melting point was 114 °C

So, `C(=C\c1nc(COc2ccc(CCCn3ccnn3)cc2)co1)/c1ccccc1` ? Its melting point was 142 to 143 °C

----------
Endpoint: melting point

The cases that follow already have their melting point on record.
Molecule | Assay Result
CC(C)n1nc(-c2cc(C(=O)NCCN3CCOCC3)cnc2-c2ccccc2)ccc1=O | 162 to 163 °C
Nc1nnc(N2CCN(C(=O)OCc3ccccc3)CC2)[nH]1 | 157 to 159 °C
CCCCP(=O)(O)CC(C)(O)CN (stereo unspecified) | 187 to 189 °C

So, `O=Nc1c(-c2ccc(Cl)cc2)nc2sc3ccccc3n12` ? Its melting point was 203 to 206 °C

So, `CC(C)(C)OC(=O)[C@@H](N)Cc1ccc(O)c(C(C)(C)C)c1` ? Its melting point was 43 to 52 °C

So, `CCOC(=O)c1c(C2CC2)nn(CC)c1Cc1ccc(-c2ccccc2S(N)(=O)=O)cc1` ? Its melting point was 54 to 58 °C

So, `COC(=O)c1cccc(NC(N)=NC#N)c1` ? Its melting point was 203 to 204 °C

----------
Endpoint: melting point

Compound | melting point
COc1ccc2cc(-c3cn([C@H]4CN5CCC4CC5)nn3)ccc2c1 | 186 °C
CSCc1cc(C(F)(F)F)ccc1N | 65.5 to 67.5 °C
COc1cc(C(N)=O)ccc1-c1nc2cc3c(cc2[nH]1)NC(=O)C3(C)C | 265 to 270 °C
CON(C(=O)Nc1nc(OCC(F)(F)F)cc(OCC(F)(F)F)n1)c1ccc(Cl)cc1 | 275 to 276 °C
COC(=O)CCCC#Cc1cc(F)cc(C(F)(F)F)c1 | 44 to 45 °C
CC(C)(COc1ccc([N+](=O)[O-])cc1)c1ccccc1 | 79 to 80 °C
CC(C=O)Cc1cc(C(C)(C)C)c(O)c(C(C)(C)C)c1 (stereo unspecified) | 162 to 164 °C
c1ccc(OCCn2c(CC3CC3)nc3cnc4cc(-c5ccccc5)ccc4c32)cc1 | 175 to 176 °C

# input for lookup
So, `CC1=C(c2ccc(C(=O)N3Cc4cccn4Cc4ccccc43)cc2)CCCC1=O` ? Its melting point was 95 to 97 °C

----------
Recorded measurements of melting point, one per entry

Compound Smiles | Assay Result
O=[N+]([O-])c1cnc2cccnc2c1NCc1ccccc1 | 127 to 129 °C

So, `c1ccc(Cn2nc(-c3ccco3)c3cncnc32)cc1` ? Its melting point was 106 °C

So, `O=C(NC(c1ccccc1)c1ccccc1)N1CCC(C(=O)O)(c2ccccc2)CC1` ? Its melting point was 208 °C

So, `COc1cccc(S(=O)(=O)Nc2nccnc2OC)c1` ? Its melting point was 133 to 134 °C

So, `COc1ccccc1NC(=O)Nc1nc(NCCc2ccc(O)cc2)nc(Oc2ccc3ccccc3c2)n1` ? Its melting point was 238 °C

So, `O=C(NCCCCN1CCC(c2ccc3c(c2O)CCCC3)CC1)c1ccc(-c2ccc(C(F)(F)F)cc2)cc1` ? Its melting point was 220 to 222 °C

So, `COc1cc(N2CCN(C[C@H](C)O)CC2)ccc1Nc1ncc2ccc(-c3ccccc3S(C)(=O)=O)n2n1` ? Its melting point was 98 to 100 °C

So, `CCCCOc1ccc(-c2ccc(-c3ccc(-c4ccc(-c5ccc(OCCCC)cc5)s4)c4nsnc34)s2)cc1` ? Its melting point was 330 to 331 °C

So, `O=C1CCN(C(=O)c2cccs2)CC1` ? Its melting point was 81 to 83 °C
